Molecular target: BRAF V600E (Homo sapiens, UniProt P15056+Q96SW2, V600E)
Construct: knock-in of the HiBiT tag to the endogenous BRAF V600E locus; host or cells: A375.10 (A375 clonal line, CRISPR HiBiT knock-in at the endogenous BRAF V600E locus)
Sequence (P15056 whole entry V600E): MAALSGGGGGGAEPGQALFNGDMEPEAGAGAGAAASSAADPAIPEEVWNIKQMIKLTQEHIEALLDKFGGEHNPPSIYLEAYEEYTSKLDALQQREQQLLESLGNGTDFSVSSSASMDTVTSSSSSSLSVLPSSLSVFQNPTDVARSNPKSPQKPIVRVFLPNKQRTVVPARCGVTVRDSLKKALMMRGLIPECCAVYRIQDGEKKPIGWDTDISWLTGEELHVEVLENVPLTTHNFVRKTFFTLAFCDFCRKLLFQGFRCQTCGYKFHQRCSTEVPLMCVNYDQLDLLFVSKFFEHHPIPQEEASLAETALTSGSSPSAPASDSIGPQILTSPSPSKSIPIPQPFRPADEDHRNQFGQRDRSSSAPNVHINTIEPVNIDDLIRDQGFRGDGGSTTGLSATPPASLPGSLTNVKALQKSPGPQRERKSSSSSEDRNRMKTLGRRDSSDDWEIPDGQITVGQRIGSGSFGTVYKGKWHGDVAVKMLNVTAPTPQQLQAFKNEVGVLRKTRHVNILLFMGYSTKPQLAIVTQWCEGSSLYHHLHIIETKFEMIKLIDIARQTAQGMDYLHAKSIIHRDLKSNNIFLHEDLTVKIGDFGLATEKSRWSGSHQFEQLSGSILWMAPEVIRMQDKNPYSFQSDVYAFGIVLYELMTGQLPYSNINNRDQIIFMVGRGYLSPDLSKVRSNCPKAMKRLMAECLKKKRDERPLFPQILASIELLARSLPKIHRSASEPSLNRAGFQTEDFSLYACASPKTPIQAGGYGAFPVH
Sequence (Q96SW2 whole entry): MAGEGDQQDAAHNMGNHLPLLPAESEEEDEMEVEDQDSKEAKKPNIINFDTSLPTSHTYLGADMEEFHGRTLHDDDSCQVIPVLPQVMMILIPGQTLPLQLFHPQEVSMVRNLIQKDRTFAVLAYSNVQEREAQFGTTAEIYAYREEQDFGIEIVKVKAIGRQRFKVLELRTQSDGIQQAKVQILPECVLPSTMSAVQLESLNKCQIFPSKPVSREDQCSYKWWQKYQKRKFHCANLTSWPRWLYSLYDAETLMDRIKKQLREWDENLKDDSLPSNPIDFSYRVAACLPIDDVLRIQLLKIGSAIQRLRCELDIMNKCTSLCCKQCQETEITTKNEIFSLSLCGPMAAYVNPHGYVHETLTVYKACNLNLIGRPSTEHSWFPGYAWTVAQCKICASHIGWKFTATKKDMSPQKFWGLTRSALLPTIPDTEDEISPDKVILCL
Sequence (Q16531 whole entry partner): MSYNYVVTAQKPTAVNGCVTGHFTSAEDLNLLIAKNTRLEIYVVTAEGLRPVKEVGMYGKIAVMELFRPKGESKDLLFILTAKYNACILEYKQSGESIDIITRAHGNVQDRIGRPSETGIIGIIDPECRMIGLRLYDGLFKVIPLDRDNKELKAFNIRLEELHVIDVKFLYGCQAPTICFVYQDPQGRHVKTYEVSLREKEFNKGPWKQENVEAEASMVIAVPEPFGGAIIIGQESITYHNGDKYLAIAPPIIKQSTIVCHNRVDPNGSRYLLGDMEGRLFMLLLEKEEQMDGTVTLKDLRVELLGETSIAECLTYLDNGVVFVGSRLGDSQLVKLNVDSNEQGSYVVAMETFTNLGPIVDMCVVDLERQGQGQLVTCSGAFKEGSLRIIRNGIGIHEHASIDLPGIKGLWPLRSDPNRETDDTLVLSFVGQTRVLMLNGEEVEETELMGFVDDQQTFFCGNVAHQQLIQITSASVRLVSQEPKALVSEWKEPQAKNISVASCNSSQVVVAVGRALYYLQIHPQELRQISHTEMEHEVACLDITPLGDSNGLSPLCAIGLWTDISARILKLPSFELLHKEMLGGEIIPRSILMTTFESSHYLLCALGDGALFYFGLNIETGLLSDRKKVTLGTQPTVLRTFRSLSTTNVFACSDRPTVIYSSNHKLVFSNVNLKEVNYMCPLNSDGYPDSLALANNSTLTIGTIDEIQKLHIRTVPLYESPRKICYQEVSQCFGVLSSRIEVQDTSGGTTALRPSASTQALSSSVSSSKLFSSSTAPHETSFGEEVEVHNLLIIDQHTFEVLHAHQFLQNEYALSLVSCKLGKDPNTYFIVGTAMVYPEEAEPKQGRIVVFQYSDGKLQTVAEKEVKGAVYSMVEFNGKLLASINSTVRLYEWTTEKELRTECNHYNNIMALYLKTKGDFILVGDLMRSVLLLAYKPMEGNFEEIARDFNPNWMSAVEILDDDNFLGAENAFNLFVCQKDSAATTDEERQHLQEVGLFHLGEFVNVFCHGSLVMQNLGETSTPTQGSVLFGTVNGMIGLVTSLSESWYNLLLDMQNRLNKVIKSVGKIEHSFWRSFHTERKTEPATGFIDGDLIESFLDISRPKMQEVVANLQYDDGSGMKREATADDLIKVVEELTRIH
Experiment: BRAF V600E HiBiT Degradation Assay
Format: cell-based
Details: A375.10 cells, BRAF V600E, 2 hours; inflection point; read-out: HiBiT-Degradation A375.10 BRAF 2 hours IP
measured.quantity: DC50

Known DC50 results, listed for orientation:
compound	DC50
CN(CCO)S(=O)(=O)Nc1ccc(F)c(Oc2ccc3ncn([C@H]4COC5(CCN(C6CC7(C6)CN(c6cc8c(cc6F)c(N6CCC(=O)NC6=O)nn8C)C7)CC5)C4)c(=O)c3c2)c1C#N [Compound 130]	< 1000 nM
CCN(C)S(=O)(=O)Nc1ccc(F)c(Oc2ccc3ncn(C4CC5(CCN(C6CCC(c7cc8c(cc7F)c(N7CCC(=O)NC7=O)nn8C)CC6)CC5)C4)c(=O)c3c2)c1F (single isomer, unassigned) [Compound 179]	< 1000 nM

// switching to the query compound
IN: For CCN(C)S(=O)(=O)Nc1ccc(F)c(Oc2ccc3ncn([C@H]4COC5(CCC(N6CC7(CN(c8ccc(NC9CCC(=O)NC9=O)cc8F)C7)C6)CC5)C4)c(=O)c3c2)c1C#N (stereo partly drawn) [Compound 30] , what is its reported DC50?
OUT: < 1000 nM
